The origin of these recorded values is paper PMC11859184.

experiment: Ex vivo biodistribution of 177Lu-labeled ligands in PC-3 tumor-bearing mice; details: mouse, muscle, intravenous, 72 h pi, n = 5; read-out: Muscle uptake

Compound | tissue uptake at 72 h, %ID/g
CC(C)C[C@H](NC(=O)[C@H](Cc1cnc[nH]1)N(C)C(=O)CNC(=O)[C@@H](NC(=O)[C@H](C)NC(=O)[C@H](Cc1c[nH]c2ccccc12)NC(=O)[C@H](CCC(N)=O)NC(=O)[C@@H](Cc1ccccc1)NC(=O)CN1CCC(NC(=O)CN2CCN(CC(=O)O)CCN(CC(=O)O)CCN(CC(=O)O)CC2)CC1)C(C)(C)C)C(=O)N1CC(F)(F)C[C@H]1C(N)=O [[^177Lu]Lu-LW02060, metal not drawn] | 0.01
